- TARGET UNDER TEST: equine FcRn (large alpha subunit p51) / equine beta-2-microglobulin complex, biotinylated (equine) (UniProt P30441)
- ASSAY COMMENT: SPR (Biacore), pH 6
pKd: −log10 of the molar value.
MEASURE NAME: pKd

* equine IgG4 A426Q (antibody, part only; not given: variable domains, not shown: another chain or arm of the molecule) constant: ASTTAPKVFPLASHSAATSGSTVALGCLVSSYFPEPVTVSWNSGALTSGVHTFPSVLQSSGLYSLSSMVTVPASSLKSQTYICNVAHPASSTKVDKKIVIKECNGGCPAECLQVGPSVFIFPPKPKDVLMISRTPTVTCVVVDVGHDFPDVQFNWYVDGVETHTATTEPKQEQFNSTYRVVSVLPIQHKDWLSGKEFKCKVNNKALPAPVERTISKPTGQPREPQVYVLAPHRDELSKNKVSVTCLVKDFYPTDIDIEWKSNGQPEPETKYSTTPAQLDSDGSYFLYSKLTVETNRWQQGTTFTCQVMHEALHNHYTEKSVSKSPGK | 7.67
